All figures here come from a melting point compilation (Tetko et al.).

Provide the recorded melting point for the entries that follow.

CC(=O)c1cc(C(C)=O)c(O)cc1O ... 180 °C
Cc1ccncc1CNC(=O)c1ccccc1 ... 112 °C
COc1ccc(C=Nn2c(S)nnc2CCn2c(C)nc3ccccc32)cc1 ... 262 °C
CCCC(=O)c1ccc(O)cc1 ... 91 °C
O=[N+]([O-])c1ccc(Oc2ccc(N=C=S)cc2)cc1 ... 122 to 124 °C

Return reported melting point values for all items listed beneath this line.
1. Cc1ccc(C(=O)CCC(=O)O)cc1
2. Fc1cccc(Br)n1
3. CN(C(=O)COc1nc2ccccc2s1)c1ccccc1
4. CCOC(=O)C1=C(C)NC(=O)NC1c1ccccc1C(F)(F)F (configuration not stated)
5. CC(C)(C)OC(=O)N1CCN(C(=O)OCC2c3ccccc3-c3ccccc32)C(C(=O)O)C1 (configuration not stated)
6. Cc1nn(C)c2sc(C(=O)Cl)cc12
7. COC(=O)c1ccc(C(=O)OC)nc1

Ans.
1: 129 °C; 2: 32 °C; 3: 135 °C; 4: 203 °C; 5: 163 to 166 °C; 6: 165 to 167 °C; 7: 163 to 164 °C

----------
value-type: melting point (°C)
Give bare numbers, in °C.

COc1ccc2c(c1C)CC2C#N (stereo unspecified) ... 80
Cc1cc(F)ccc1N ... 14.2
ON=Cc1ccc(OC(F)(F)F)cc1 ... 41
N#C/C(=N/Nc1cccc([N+](=O)[O-])c1)c1nc(-c2ccccc2)cs1 ... 215
C=C1CCOC2(C(O)C(C)(O)CO)NC(=O)C1(O)NC2=O (stereo unspecified) ... 188
O=C1C(C(O)c2ccc(Cl)cc2)C(C(F)(F)F)=NN1c1ccccc1 (stereo unspecified) ... 168

Below are some compounds; for each one, tell me its melting point.
1. Cc1cc(C)oc(=O)c1
2. Cc1c(C)n(C)c2ccccc12
3. COC(=O)C1(S(=O)(=O)c2ccccc2)CCCCC1
4. O=C(O)c1cc(-c2ccccc2)n[nH]1
5. CN1C(CSCC(F)(F)F)Nc2cc(Cl)c(S(N)(=O)=O)cc2S1(=O)=O (stereo unspecified)
6. COc1ccc(C)cc1

Ans.
[51.5, 18, 114, 250, 214, -32]

Value sought for every listed compound: melting point.
1. CCCCCCC=NO
2. Nc1ccc(SC(F)(F)F)c(Cl)c1
3. Cc1cccc(C(N)=O)c1C

Ans.
1. 57.5
2. 43
3. 157

I would be grateful if you could provide melting point for each of the following entries.
1. CCOc1c(Nc2ccc(C(=O)O)cc2)c(=O)c1=O
2. CCCCCCCCCCCCCCCCCC(C)C

Ans.
[300, 18]

----------
value-type: melting point (°C)
Numbers only, in °C.

Here is how some molecules turned out for melting point.
O=C(Nc1ccccc1)OCc1ccccc1[N+](=O)[O-] ... 141
CCCC(/C=C1\C(=O)C2(C)CCC1C2(C)C)(/C=C1\C(=O)C2(C)CCC1C2(C)C)C(=O)OCC (configuration not stated) ... 161
C=CCCCCCCC1CO1 (configuration not stated) ... 25
NS(=O)(=O)c1cc2c(cc1Cl)CN(C1CCCCC1)C2=O ... 267
Cc1cc(C(=O)O)c(C)[nH]1 ... 200

Provide reported melting point for each item, in the same order as listed.
1. O/N=C1\C(c2ccccc2)=Nc2ccccc21
2. CC(C)C12CCC(C)(O1)C(=O)OC2=O (configuration not stated)
3. O=C1c2ccccc2C(=O)C1c1ccc2ccccc2n1
4. CNc1ccc(O)c2c1C(=O)c1c(O)ccc(NC)c1C2=O
5. OCCNC(CO)(CO)CO

Ans.
1. 260
2. 109
3. 241
4. 217
5. 89
